B1: Tyrosine-protein kinase Lck, residues 63 to 120; numbered along this chain, P06239 (parent)
chain: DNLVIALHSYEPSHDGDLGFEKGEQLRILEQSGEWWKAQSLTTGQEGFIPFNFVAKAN

- Variants of: B1
- protocol-summary: abundance fitness (aPCA) (normalised: wild type 0, dead -1); higher = more abundant; growth selection in yeast, the domain comes from the species named
- run-conditions: Homo sapiens
value-type: abundance fitness

{"variant-label": "D15L", "endpoint-value": -0.106}
{"variant-label": "G19V", "endpoint-value": -0.47}
{"variant-label": "K37A", "endpoint-value": -0.615}
{"variant-label": "T42P", "endpoint-value": -0.715}
{"variant-label": "E30G", "endpoint-value": -0.21}
{"variant-label": "S13A", "endpoint-value": -0.177}

Lookup: Would you kindly share the measured abundance fitness for L7H ?
Found: -0.429

Lookup: Using the record for G47H , report its abundance fitness.
Found: -0.81

Lookup: If you can, please state the reported abundance fitness value of G47T .
Found: -0.831

Lookup: Value lookup for abundance fitness; key = Y10P
Found: -0.673

Lookup: What value of abundance fitness has been recorded for this entry: K56A
Found: 0.019
